# credit: PubChem BioAssay (NCATS)

# ASSAY_SUMMARY: Primary qHTS for inhibitors of MERS-S pseudo-typed particle cell entry (AID 1479149); also: nearly all actives have a fitted effect of over 60% in size
# CONDITIONS_USED: MERS-S pseudotyped particle entry, luciferase; series mostly up to 57.1 µM
Results filed as inconclusive are left out. Active and inactive are the calls of the source. Calls follow the shape of the full dose curve.
Classes used: active, inactive

INSERT INTO measurements (compound, assigned_class) VALUES
  ('Cc1oc(=O)oc1COC(=O)N1CC[C@@H](N2CC/C(=C\C3=C(C(=O)O)N4C(=O)[C@@H](NC(=O)/C(=N/O)c5nsc(N)n5)[C@H]4SC3)C2=O)C1', 'inactive'),
  ('CC(C)(C)NCC(O)COc1ccccc1C#N (centres undefined)', 'inactive'),
  ('CC(=O)OCC(=O)[C@@]1(O)CC[C@H]2[C@@H]3C[C@H](C)C4=CC(=O)C=C[C@]4(C)[C@H]3[C@@H](O)C[C@@]21C', 'inactive'),
  ('CN1CC(O)c2cc(N=NC(N)=O)c(O)cc21 (centres undefined)', 'inactive'),
  ('C=C(C)C1CC=C(C)CC1 (centres undefined)', 'inactive'),
  ('CCCCC(=O)OCC(=O)[C@]1(O)Cc2c(O)c3c(c(O)c2[C@@H](O[C@H]2C[C@H](NC(=O)C(F)(F)F)[C@H](O)[C@H](C)O2)C1)C(=O)c1c(OC)cccc1C3=O', 'active'),
  ('CC(C)=CCC/C(C)=C/C=C/C(C)=C/C=C/C(C)=C/C=C/C=C(C)/C=C/C=C(C)/C=C/C=C(\C)CCC=C(C)C', 'inactive'),
  ('CC(C)N(CCCCOCC(=O)NS(C)(=O)=O)c1cnc(-c2ccccc2)c(-c2ccccc2)n1', 'inactive'),
  ('CCOc1nc2cccc(C(=O)O)c2n1Cc1ccc(-c2ccccc2-c2noc(=O)[nH]2)cc1', 'inactive');
